Target Or Test System: UniProt P05067
Sequence (P05067 672-713): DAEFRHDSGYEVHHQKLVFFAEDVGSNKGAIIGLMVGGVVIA
Assay Procedure: Th-T (thioflavin-T) assay of Aβ42 aggregation
Type: biochemical
Stated Conditions: Supplementary Fig. 47 source data; measurement M45 of time course
Measured Metric: Th-T fluorescence, mean of three wells

INSERT INTO assay_data (compound, target_or_test_system, meas_value) VALUES
  ('C=C1CC[C@H]2[C@]3(C)C[C@H](C=C(C)C)O[C@H]3CC[C@]2(C)[C@@H]1Cc1c(OC)oc(C)c(C)c1=O [Compound 24]', 'UniProt P05067', 4.146),
  ('C=C1CCC2C(C)(CC(=O)C=C(C)C)C(O)CCC2(C)C1Cc1c(O)c(C)c(C)oc1=O (stereo not drawn) [Compound 7]', 'UniProt P05067', 3.57),
  ('C=C1CC[C@@H]2[C@](C)(CC[C@H]3O[C@H](C=C(C)C)C[C@@]23C)[C@@H]1Cc1c(O)c(C)c(C)oc1=O [Compound 10, higginsianin A]', 'UniProt P05067', 3.107),
  ('C=C1CCC2C(C)(CCC=C(C)C)C(=O)CCC2(C)C1Cc1c(O)c(C)c(C)oc1=O (stereo not drawn) [Compound 8]', 'UniProt P05067', 2.191),
  ('CC(C)=CCC/C(C)=C/CC/C(C)=C/CC/C(C)=C/Cc1c(O)c(C)c(C)oc1=O [Compound 2]', 'UniProt P05067', 2.833),
  ('C=C1CCC2C(C)(CC(=O)C=C(C)C)C(O)CCC2(C)C1Cc1c(OC)oc(CO)c(C)c1=O (stereo not drawn) [Compound 19]', 'UniProt P05067', 3.546),
  ('C=C1CC[C@H]2[C@]3(C)C[C@@H](C=C(C)C)O[C@H]3CC[C@]2(C)[C@@H]1Cc1c(O)c(C)c(C)oc1=O [Compound 5, subglutinol A]', 'UniProt P05067', 2.678),
  ('C=C1CCC2C(C)(CC(=O)C=C(C)C)C(O)CCC2(C)C1Cc1c(OC)oc(C)c(C)c1=O (stereo not drawn) [Compound 25]', 'UniProt P05067', 3.771),
  ('C=C1CC[C@H]2[C@]3(C)C[C@H](C=C(C)C)O[C@H]3CC[C@]2(C)[C@@H]1Cc1c(O)c(C)c(C)oc1=O [Compound 6, subglutinol B]', 'UniProt P05067', 3.111),
  ('C=C1CC[C@H]2[C@]3(C)C[C@@H](C=C(C)C)O[C@H]3CC[C@]2(C)[C@@H]1Cc1c(OC)oc(CO)c(C)c1=O [Compound 17]', 'UniProt P05067', 3.459),
  ('C=C1CC[C@H]2[C@]3(C)C[C@H](C=C(C)C)O[C@H]3CC[C@]2(C)[C@@H]1Cc1c(OC)oc(CO)c(C)c1=O [Compound 18]', 'UniProt P05067', 3.893),
  ('C=C1CCC2C3(C)CC(C=C(C)C)OC3CCC2(C)C1Cc1c(OC)oc(C)c(C)c1=O (stereo not drawn) [Compound 23]', 'UniProt P05067', 3.993);
